- Measurement Description: Side effects in Example 3: body weight, meals, blood glucose, serological profiles, liver weight
- Format: in vivo, nude mice
- Condition Details: day 21; 2DG 100 mg/kg/day intraperitoneally every day
Measured Parameter: ALT (U/L)
Your answer should be a plain number; it is taken to be in U/L.

Input line: Using the record for O=CC[C@@H](O)[C@H](O)[C@H](O)CO , report its ALT.
Output line: 38.6
